Sourced from ChEMBL document CHEMBL1126582

Assay: Estimated solubility (buffer pH 7.4)
Assay type: ADME
Conditions: read-out: S
experimental-readout: log10 solubility (log10 of the value in µg/mL)
On a log10 scale: recorded solubility, unit µg/mL.

molecule	log10 solubility
CC(C)[C@H](NC(=O)OCc1ccccn1)C(=O)N[C@@H](Cc1ccccc1)C(O)[C@H](Cc1ccccc1)NC(=O)[C@H](NC(=O)OCc1ccccn1)C(C)C (stereo partly specified)	1.71
CC(C)[C@H](NC(=O)N(C)Cc1cccnc1)C(=O)N[C@@H](Cc1ccccc1)[C@@H](O)[C@@H](O)[C@H](Cc1ccccc1)NC(=O)[C@H](NC(=O)N(C)Cc1cccnc1)C(C)C	2.53
CC(C)[C@H](NC(=O)OCc1ccccn1)C(=O)N[C@@H](Cc1ccccc1)[C@@H](O)[C@H](Cc1ccccc1)NC(=O)[C@H](NC(=O)OCc1ccccc1)C(C)C	-0.22
CC(C)[C@H](NC(=O)N1CCN(c2ccccc2)CC1)C(=O)N[C@@H](Cc1ccccc1)[C@@H](O)[C@@H](O)[C@H](Cc1ccccc1)NC(=O)[C@H](NC(=O)N1CCN(c2ccccc2)CC1)C(C)C	0.00
CC(C)[C@H](NC(=O)N(C)Cc1csc(N)n1)C(=O)N[C@@H](Cc1ccccc1)[C@@H](O)[C@H](O)[C@H](Cc1ccccc1)NC(=O)[C@H](NC(=O)N(C)Cc1csc(N)n1)C(C)C	2.26
CC(C)[C@H](NC(=O)N(C)Cc1nccs1)C(=O)N[C@@H](Cc1ccccc1)[C@H](O)[C@H](O)[C@H](Cc1ccccc1)NC(=O)[C@H](NC(=O)N(C)Cc1nccs1)C(C)C	1.76

Inquiry: Requested field: log10 solubility. Item: `CC(C)[C@H](NC(=O)N1CCN(C)CC1)C(=O)N[C@@H](Cc1ccccc1)[C@@H](O)[C@H](Cc1ccccc1)NC(=O)[C@H](NC(=O)OCc1ccccc1)C(C)C`
Reply text: 2.15

Inquiry: Field entry: `CC(C)[C@H](NC(=O)N(C)Cc1cscn1)C(=O)N[C@@H](Cc1ccccc1)[C@@H](O)[C@H](O)[C@H](Cc1ccccc1)NC(=O)[C@H](NC(=O)N(C)Cc1cscn1)C(C)C`
Reply text: 2.20

Inquiry: Another molecule: CC(C)[C@H](NC(=O)OCc1cccnc1)C(=O)N[C@@H](Cc1ccccc1)C(O)[C@H](Cc1ccccc1)NC(=O)[C@H](NC(=O)OCc1cccnc1)C(C)C (stereo partly specified)
Reply text: 1.26

Inquiry: Also `CC(C)[C@H](NC(=O)N1CCN(Cc2ccccc2)CC1)C(=O)N[C@@H](Cc1ccccc1)[C@@H](O)[C@@H](O)[C@H](Cc1ccccc1)NC(=O)[C@H](NC(=O)N1CCN(Cc2ccccc2)CC1)C(C)C` , if possible.
Reply text: 0.95

====

Measured CC50, listed per entry.
Experiment: In vitro for cytotoxicity in MT-4 lymphocytes in the absence of HIV infection
Format: cell-based, MT4
Conditions: human

Answered examples (2):
compound	CC50
CC(C)[C@H](NC(=O)CCc1cccnc1)C(=O)N[C@@H](Cc1ccccc1)[C@@H](O)[C@@H](O)[C@H](Cc1ccccc1)NC(=O)[C@H](NC(=O)CCc1cccnc1)C(C)C	> 100 µM
CC(C)[C@H](NC(=O)CCc1cccnc1)C(=O)N[C@@H](Cc1ccccc1)C(O)[C@H](Cc1ccccc1)NC(=O)[C@H](NC(=O)CCc1cccnc1)C(C)C (stereo partly drawn)	55 µM

For the next question, use this compound.
Inquiry: Recorded CC50 for CC(C)[C@H](NC(=O)C1Cc2ccccc2CN1)C(=O)N[C@@H](Cc1ccccc1)C(O)[C@H](Cc1ccccc1)NC(=O)[C@H](NC(=O)C1Cc2ccccc2CN1)C(C)C (stereo partly drawn) , please?
Reply text: 6.4 µM

====

Target: Human immunodeficiency virus type 1 protease (Human immunodeficiency virus 1)
Assay: Inhibition of purified recombinant HIV-1 protease in a fluorogenic assay
pIC50: −log10 of the molar value.
experimental-readout: pIC50

// solved cases for pIC50 follow
smiles-representation	pIC50
CC(C)[C@H](NC(=O)OCc1ccccn1)C(=O)N[C@@H](Cc1ccccc1)[C@H](O)[C@H](O)[C@H](Cc1ccccc1)NC(=O)[C@H](NC(=O)OCc1ccccn1)C(C)C	> 9.00
CC(C)[C@H](NS(=O)(=O)CCc1ccncc1)C(=O)N[C@@H](Cc1ccccc1)[C@@H](O)[C@@H](O)[C@H](Cc1ccccc1)NC(=O)[C@H](NS(=O)(=O)CCc1ccncc1)C(C)C	8.24

Now for another entry.
Inquiry: Can you look up pIC50 on Human immunodeficiency virus type 1 protease (Human immunodeficiency virus 1) for `CC(C)[C@H](NC(=O)N(C)Cc1ccccn1)C(=O)N[C@@H](Cc1ccccc1)[C@H](O)[C@@H](O)[C@H](Cc1ccccc1)NC(=O)[C@H](NC(=O)N(C)Cc1cscn1)C(C)C` ?
Reply text: > 9.00

====

Experiment: Estimated solubility (buffer pH 7.4)
Type: ADME
Details: read-out: S
Consider the following molecules and their measured solubility readings.
Only the number, expressed in µg/mL, is required.

Previously resolved entries follow.
molecule	test-result
CC(C)[C@H](NS(=O)(=O)N(C)Cc1ccccn1)C(=O)N[C@@H](Cc1ccccc1)[C@H](O)[C@H](O)[C@H](Cc1ccccc1)NC(=O)[C@H](NS(=O)(=O)N(C)Cc1ccccn1)C(C)C	40
CC(C)[C@H](NC(=O)N(C)Cc1cccnc1)C(=O)N[C@@H](Cc1ccccc1)[C@H](O)[C@H](O)[C@H](Cc1ccccc1)NC(=O)[C@H](NC(=O)N(C)Cc1cccnc1)C(C)C	91
CC(C)[C@H](NC(=O)/C=C/c1cccnc1)C(=O)N[C@@H](Cc1ccccc1)[C@@H](O)[C@@H](O)[C@H](Cc1ccccc1)NC(=O)[C@H](NC(=O)/C=C/c1cccnc1)C(C)C	23
CC(C)[C@H](NC(=O)N(C)Cc1ccccn1)C(=O)N[C@@H](Cc1ccccc1)[C@H](O)[C@H](O)[C@H](Cc1ccccc1)NC(=O)[C@H](NC(=O)N(C)Cc1ccccn1)C(C)C	3.6
CC(C)[C@H](NC(=O)OCc1ccncc1)C(=O)N[C@@H](Cc1ccccc1)[C@@H](O)[C@H](Cc1ccccc1)NC(=O)[C@H](NC(=O)OCc1ccccc1)C(C)C	0.8

Inquiry: Which solubility is reported for this molecule? `CC(C)[C@H](NC(=O)OCc1ccccn1)C(=O)N[C@@H](Cc1ccccc1)[C@@H](O)[C@@H](O)[C@H](Cc1ccccc1)NC(=O)[C@H](NC(=O)OCc1ccccn1)C(C)C`
Reply text: 5.4

Inquiry: Try the molecule `CC(C)[C@H](NC(=O)N(C)Cc1nccs1)C(=O)N[C@@H](Cc1ccccc1)[C@@H](O)[C@H](O)[C@H](Cc1ccccc1)NC(=O)[C@H](NC(=O)N(C)Cc1nccs1)C(C)C`
Reply text: 101

Inquiry: Repeat for the following molecule: `CC(C)[C@H](NC(=O)N(C)Cc1ccccn1)C(=O)N[C@@H](Cc1ccccc1)[C@@H](O)[C@H](O)[C@H](Cc1ccccc1)NC(=O)[C@H](NC(=O)N(C)Cc1ccccn1)C(C)C`
Reply text: 197

Inquiry: Could you do the same for CC(C)[C@H](NC(=O)NCc1ccccn1)C(=O)N[C@@H](Cc1ccccc1)C(O)[C@H](Cc1ccccc1)NC(=O)[C@H](NC(=O)NCc1ccccn1)C(C)C (stereo partly specified) , please?
Reply text: 53

Inquiry: Again, but for `CC(C)[C@H](NC(=O)N(C)Cc1nc2ccccc2[nH]1)C(=O)N[C@@H](Cc1ccccc1)[C@H](O)[C@H](O)[C@H](Cc1ccccc1)NC(=O)[C@H](NC(=O)N(C)Cc1nc2ccccc2[nH]1)C(C)C`
Reply text: 18

Inquiry: Then this molecule: `CC(C)[C@H](NC(=O)OCc1ccccn1)C(=O)N[C@@H](Cc1ccccc1)[C@H](O)[C@H](O)[C@H](Cc1ccccc1)NC(=O)[C@H](NC(=O)OCc1ccccn1)C(C)C`
Reply text: 0.21

Inquiry: Query `CC(C)[C@H](NC(=O)/C=C/c1ccccn1)C(=O)N[C@@H](Cc1ccccc1)[C@@H](O)[C@@H](O)[C@H](Cc1ccccc1)NC(=O)[C@H](NC(=O)/C=C/c1ccccn1)C(C)C` next
Reply text: 6.8

Inquiry: // next record `CC(C)[C@H](NC(=O)OCc1cccnc1)C(=O)N[C@@H](Cc1ccccc1)[C@@H](O)[C@H](Cc1ccccc1)NC(=O)[C@H](NC(=O)OCc1ccccc1)C(C)C`
Reply text: 0.9

Inquiry: Now consider `CC(C)[C@H](NS(=O)(=O)CCc1ccccn1)C(=O)N[C@@H](Cc1ccccc1)[C@@H](O)[C@@H](O)[C@H](Cc1ccccc1)NC(=O)[C@H](NS(=O)(=O)CCc1ccccn1)C(C)C` .
Reply text: 26

Inquiry: And what about the molecule `CC(C)[C@H](NS(=O)(=O)CCc1ccccn1)C(=O)N[C@@H](Cc1ccccc1)[C@H](O)[C@H](O)[C@H](Cc1ccccc1)NC(=O)[C@H](NS(=O)(=O)CCc1ccccn1)C(C)C` ?
Reply text: 0.047

Inquiry: What do you have for `CC(C)[C@H](NC(=O)N(C)Cc1nc2ccccc2[nH]1)C(=O)N[C@@H](Cc1ccccc1)[C@@H](O)[C@@H](O)[C@H](Cc1ccccc1)NC(=O)[C@H](NC(=O)N(C)Cc1nc2ccccc2[nH]1)C(C)C` ?
Reply text: 12

Inquiry: Request: `CC(C)[C@H](NC(=O)N1CCN(Cc2ccccc2)CC1)C(=O)N[C@@H](Cc1ccccc1)[C@H](O)[C@H](O)[C@H](Cc1ccccc1)NC(=O)[C@H](NC(=O)N1CCN(Cc2ccccc2)CC1)C(C)C`
Reply text: 1.7

Inquiry: // next record `CC(C)[C@H](NC(=O)N(C)Cc1ccccn1)C(=O)N[C@@H](Cc1ccccc1)[C@H](O)[C@@H](O)[C@H](Cc1ccccc1)NC(=O)[C@H](NC(=O)N(C)Cc1csc(N)n1)C(C)C`
Reply text: 386

Inquiry: Next molecule: `CC(C)[C@H](NC(=O)N(C)Cc1nccs1)C(=O)N[C@@H](Cc1ccccc1)[C@H](O)[C@@H](O)[C@H](Cc1ccccc1)NC(=O)[C@H](NC(=O)N(C)Cc1csc(N)n1)C(C)C`
Reply text: 196

Inquiry: Thanks! And `CC(C)[C@H](NS(=O)(=O)CCc1ccncc1)C(=O)N[C@@H](Cc1ccccc1)[C@@H](O)[C@H](O)[C@H](Cc1ccccc1)NC(=O)[C@H](NS(=O)(=O)CCc1ccncc1)C(C)C` ?
Reply text: 32
